# ASSAYED_SYSTEM: AMP-activated protein kinase, AMPK (Homo sapiens) (UniProt P54646+O43741+P54619+Q9UGJ0+Q9Y478+Q13131+Q9UGI9)
# EXPERIMENT_DESCRIPTION: AMP-dependent Kinase enzyme assay. An in vitro enzyme assay that detects ADP turnover that is directly proportional to AMPK activity. This uses naive AMPK that is activated during the assay with MK-8722
# Assay type: functional
# Parameters: scale not given: direction of the effect not stated beside the values
# STUDY_CONDITIONS: 30 µM
MEASURED_PROPERTY: Percent Effect (%)
Provide the reading as a plain figure in %.

[
  {
    "COMPOUND": "COc1ccc2c(ccn2CCC(=O)O)c1",
    "UNIT_TEXT": "%",
    "Percent Effect": -3.9
  },
  {
    "COMPOUND": "O=C(NCCN1CCCc2ccccc21)c1scnc1Cl",
    "UNIT_TEXT": "%",
    "Percent Effect": 0.379
  },
  {
    "COMPOUND": "COCCN1C(=O)[C@]2(CC[C@@H]3CN(C(=O)NC4CCCC4)C[C@@H]32)N=C1C",
    "UNIT_TEXT": "%",
    "Percent Effect": -3.34
  },
  {
    "COMPOUND": "Cc1cc(N2CCN(Cc3ccc(-c4cc[nH]n4)o3)CC2)cc(C)n1",
    "UNIT_TEXT": "%",
    "Percent Effect": -25.4
  },
  {
    "COMPOUND": "Cn1nc(C2CN(C(=O)c3cscn3)C2)c2nccnc21",
    "UNIT_TEXT": "%",
    "Percent Effect": -2.02
  }
]

Recorded result, CS(=O)(=O)NCCCNC(=O)c1cccc(-n2cccc2)c1 , Percent Effect: 0.491

Recorded result, CC(NC(=O)NCC1(N2CCCCC2)CCCCC1)c1nncn1C (stereo not drawn) , Percent Effect: -2.65

Recorded result, Cc1ccc(-c2nc(CNCCn3cccn3)cs2)o1 , Percent Effect: 4.22

Recorded result, Cn1ccnc1-c1ccccc1C(=O)N1CCc2c(nc(N)[nH]c2=O)C1 , Percent Effect: 3.19

Recorded result, O=C(Cn1cccn1)NCC1(c2ccccc2)CC1 , Percent Effect: 0.192

Recorded result, CCn1cc(C(=O)NC2CCN(S(C)(=O)=O)CC2)c2ccccc21 , Percent Effect: -3.16

Recorded result, Cc1nc(CN2C[C@@H]3CN(C(=O)c4cccn4C)C[C@@H]3C2=O)cs1 , Percent Effect: 1.31

Recorded result, CSCCCNC(=O)Nc1cccc(-c2nccn2C)c1 , Percent Effect: -0.0628

Recorded result, CCOc1cccc(C(C)NCc2ccc(OC)c(OC)c2OC)c1 (stereo not drawn) , Percent Effect: -4.66

Recorded result, Cn1cc2c(n1)C(COCC1CC1)CN(Cc1ccccn1)C2 (stereo not drawn) , Percent Effect: 0.433

Recorded result, Cc1ccc(C(=O)N2CCO[C@H]3[C@@H](OCc4ccccn4)CC[C@@H]32)o1 , Percent Effect: -8.74

Recorded result, CC(C)C1CN(C(=O)c2ccc(N3CCCC3)nc2)CCS1 (stereo not drawn) , Percent Effect: 0.107

Recorded result, O=C(c1nc(-c2ccc3cc[nH]c3c2)no1)N1CCCC1 , Percent Effect: 2.17

Recorded result, CCO[C@@H]1CCN(C(=O)c2ccc[nH]2)[C@@H]1Cc1cnn(C)c1 , Percent Effect: 17.3

Recorded result, CC(Oc1ccccc1C(F)(F)F)C(=O)NCCC(=O)N(C)C (stereo not drawn) , Percent Effect: -2.52

Recorded result, COc1ccc(-c2nc(CN3CC(n4cc(C)cn4)C3)no2)cc1 , Percent Effect: -1.25

Recorded result, Cc1ccc(-c2nc(CN3CCc4nn(C)c(=O)cc4C3)no2)cc1 , Percent Effect: 7.36

Recorded result, Cc1cc(C)c(CNC(=O)N2CCCC2c2cccn2C)c(=O)[nH]1 (stereo not drawn) , Percent Effect: 3.05

Recorded result, Cn1ccnc1CN1CCC2(CC(=O)N(c3cccc(F)c3)C2)C1 (stereo not drawn) , Percent Effect: 15

----------
Percent Effect for assorted molecules
# ASSAYED_SYSTEM: Proteasome subunit beta (Trypanosoma cruzi) (UniProt O96673)
# Sequence (O96673 as listed by the source): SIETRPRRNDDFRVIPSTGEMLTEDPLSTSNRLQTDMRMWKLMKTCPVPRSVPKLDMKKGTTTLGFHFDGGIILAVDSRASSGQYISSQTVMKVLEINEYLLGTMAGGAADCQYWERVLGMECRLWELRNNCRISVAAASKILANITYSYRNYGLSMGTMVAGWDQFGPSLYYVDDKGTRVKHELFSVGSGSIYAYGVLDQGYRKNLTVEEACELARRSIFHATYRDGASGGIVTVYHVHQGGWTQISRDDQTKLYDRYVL
# EXPERIMENT_DESCRIPTION: Trypanosoma cruzi proteasome chymotrypsin-like activity (TcProtChymo) assay. Further: in the data most compounds retested in dose-response had high values.
# Format: functional
# Parameters: scale not given: direction of the effect not stated beside the values
# STUDY_CONDITIONS: 9.37 µM
Answer shape: numeric part, then the unit.

[
  {
    "MOLECULE": "COCCOCC(=O)Nc1ccc(C)cc1F",
    "ASSAYED_SYSTEM": "Proteasome subunit beta (Trypanosoma cruzi) (UniProt O96673)",
    "Percent Effect": "9.11%"
  },
  {
    "MOLECULE": "Cc1ccc(C(=O)N2CCN(Cc3nc(C(C)C)no3)CC2)c(=O)[nH]1",
    "ASSAYED_SYSTEM": "Proteasome subunit beta (Trypanosoma cruzi) (UniProt O96673)",
    "Percent Effect": "-4.49%"
  },
  {
    "MOLECULE": "CCOCCn1c(=O)[nH]c2cc(C(=O)N(C)CCc3cn[nH]c3)ccc21",
    "ASSAYED_SYSTEM": "Proteasome subunit beta (Trypanosoma cruzi) (UniProt O96673)",
    "Percent Effect": "17.8%"
  }
]

Recorded result, CNC(=O)CCCNCc1c(C(C)C)nn(C)c1N(C)C , Percent Effect: 0.761%

Recorded result, O=C(CCc1ccc(Br)cc1F)NS(=O)(=O)c1ccc2c(c1)OCCO2 , Percent Effect: 4.97%

Recorded result, COc1ccc(CN2CCc3ncnc(C4CCOC4)c3CC2)cc1 (stereo unspecified) , Percent Effect: 5.13%

Recorded result, Cc1noc2nc(C3CCN(CC4=CCCOC4)CC3)cc(C(F)F)c12 , Percent Effect: 3.28%

Recorded result, CCOc1cc(C(=O)N2CCCC(c3cc(C(N)=O)[nH]n3)C2)ccn1 (stereo unspecified) , Percent Effect: 5.5%

Recorded result, CN(C)CCn1c(=O)oc2ccc(NC(=O)CC(C)(C)C)cc21 , Percent Effect: 7.67%

Recorded result, N#Cc1ccc(C2CC(=O)Nc3c2cnn3C2CCCC2)cc1 (stereo unspecified) , Percent Effect: 3.66%

Recorded result, O=C(N1CCCC1)N1Cc2nccn2CC(CN2CCCC2)C1 (stereo unspecified) , Percent Effect: 25.8%

----------
# ASSAYED_SYSTEM: Protein translocase subunit SecA (Escherichia coli (strain K12))
# EXPERIMENT_DESCRIPTION: Assay to Identify E. coli SecA ATPase Inhibitors
# Type: functional
# Design: scale not given: direction of the effect not stated beside the values
# STUDY_CONDITIONS: 30 µM
Measured potencies and affinities stand elsewhere.
Percent Effect for assorted compounds
Provide the reading as a plain figure in %.

Example compounds with recorded Percent Effect:
[
  {
    "COMPOUND": "CC(C)c1nnc2n1CCN(CCCS(=O)(=O)c1ccccc1)C2",
    "ASSAYED_SYSTEM": "Protein translocase subunit SecA (Escherichia coli (strain K12))",
    "MEASURED_PROPERTY": "Percent Effect",
    "UNIT_TEXT": "%",
    "VALUE_OBSERVED": -2.39
  },
  {
    "COMPOUND": "Cc1ccc2c(ccn2CCC(=O)O)c1",
    "ASSAYED_SYSTEM": "Protein translocase subunit SecA (Escherichia coli (strain K12))",
    "MEASURED_PROPERTY": "Percent Effect",
    "UNIT_TEXT": "%",
    "VALUE_OBSERVED": -4.82
  },
  {
    "COMPOUND": "CC(C)C(NC(=O)NCC1(CO)CC1)c1nnc2n1CCC2 (configuration not stated)",
    "ASSAYED_SYSTEM": "Protein translocase subunit SecA (Escherichia coli (strain K12))",
    "MEASURED_PROPERTY": "Percent Effect",
    "UNIT_TEXT": "%",
    "VALUE_OBSERVED": -7.18
  },
  {
    "COMPOUND": "CCN(CC)Cc1ccc(C(=O)N2CCCCC2Cn2cccn2)o1 (configuration not stated)",
    "ASSAYED_SYSTEM": "Protein translocase subunit SecA (Escherichia coli (strain K12))",
    "MEASURED_PROPERTY": "Percent Effect",
    "UNIT_TEXT": "%",
    "VALUE_OBSERVED": -1.67
  },
  {
    "COMPOUND": "Cc1ncc2c(n1)CCCC2NC(=O)c1ccncc1 (configuration not stated)",
    "ASSAYED_SYSTEM": "Protein translocase subunit SecA (Escherichia coli (strain K12))",
    "MEASURED_PROPERTY": "Percent Effect",
    "UNIT_TEXT": "%",
    "VALUE_OBSERVED": -8.52
  }
]

For the compound Cc1cnc2n(c1=O)CC(C(=O)Nc1ccccc1Cl)CS2 (configuration not stated) , the measured Percent Effect on Protein translocase subunit SecA (Escherichia coli (strain K12)) was -2.2

For the compound O=C(CCc1cscn1)N1CCCC1c1noc(C2CC2)n1 (configuration not stated) , the measured Percent Effect on Protein translocase subunit SecA (Escherichia coli (strain K12)) was -5.78

For the compound O=C(Cc1ccccn1)N1CCC2(CC1)CC(Oc1ccccn1)CO2 (configuration not stated) , the measured Percent Effect on Protein translocase subunit SecA (Escherichia coli (strain K12)) was -3.31

For the compound Cc1noc(C(C)C)c1C(=O)N1CCOCC1CC(=O)c1ccco1 (configuration not stated) , the measured Percent Effect on Protein translocase subunit SecA (Escherichia coli (strain K12)) was -0.641

For the compound Cc1ccccc1CN1CCC2(COCc3cnc(N(C)C)nc32)C1 (configuration not stated) , the measured Percent Effect on Protein translocase subunit SecA (Escherichia coli (strain K12)) was -1.75

For the compound CCCc1n[nH]c(C2CN(Cc3nnc(C4CC4)o3)CCO2)n1 (configuration not stated) , the measured Percent Effect on Protein translocase subunit SecA (Escherichia coli (strain K12)) was -3.64

For the compound Cc1ccc(C(=O)N2CCC3(CC2)CC(c2ccccc2)C(=O)N3)cn1 (configuration not stated) , the measured Percent Effect on Protein translocase subunit SecA (Escherichia coli (strain K12)) was 0.117

For the compound CC(OCC1CC1)C(=O)N1CCCN(Cc2cnn(C)c2)CC1 (configuration not stated) , the measured Percent Effect on Protein translocase subunit SecA (Escherichia coli (strain K12)) was 1.55

For the compound c1ncn(CC2CCCN(Cc3nc(C4CC4)no3)C2)n1 (configuration not stated) , the measured Percent Effect on Protein translocase subunit SecA (Escherichia coli (strain K12)) was -5.67

For the compound COc1cc(C)c(C(C)NC(=O)Nc2nnc(C)s2)cc1OC (configuration not stated) , the measured Percent Effect on Protein translocase subunit SecA (Escherichia coli (strain K12)) was -4.05

For the compound Cc1nc(C)n(CC2CCCN(c3ncnc4sccc34)C2)n1 (configuration not stated) , the measured Percent Effect on Protein translocase subunit SecA (Escherichia coli (strain K12)) was -2.59

For the compound Cc1ccc2oc(CNC(C)c3nnc4n3CCCC4)cc2c1 (configuration not stated) , the measured Percent Effect on Protein translocase subunit SecA (Escherichia coli (strain K12)) was -2.09

For the compound Cc1nc(N2CCCC2)ncc1-c1cc(O)nc(N2CCCC2)n1 , the measured Percent Effect on Protein translocase subunit SecA (Escherichia coli (strain K12)) was -4.52
